# ASSAY SYSTEM: human GnRH receptor (Homo sapiens, UniProt P30968)
# Construct: expressed in transfected cells; host or cells: HEK 293 (hGnRH-R/293, from Dr. Stuart Sealfon)
# Sequence (P30968 whole entry): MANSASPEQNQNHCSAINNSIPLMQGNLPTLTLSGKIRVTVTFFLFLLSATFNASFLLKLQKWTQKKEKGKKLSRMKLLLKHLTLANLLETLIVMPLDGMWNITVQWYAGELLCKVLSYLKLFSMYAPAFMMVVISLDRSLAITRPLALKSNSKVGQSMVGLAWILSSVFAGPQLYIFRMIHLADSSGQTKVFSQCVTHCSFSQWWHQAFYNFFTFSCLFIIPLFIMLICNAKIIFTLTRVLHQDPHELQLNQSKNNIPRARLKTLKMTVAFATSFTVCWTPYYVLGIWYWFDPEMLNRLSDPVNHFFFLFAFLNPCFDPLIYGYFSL
# MEASUREMENT NOTES: Radioligand binding, 125I-GnRH-A displacement, membranes of HEK 293 cells with human GnRH receptor
# RUN CONDITIONS: 10 uM, repeat; read-out: Repeats @ 10 uM hGnRH (% inhib.)

COMPOUND: Cc1cc2c(cc1Cc1ccc(C(=O)NN3C(=O)c4ccccc4C3=O)o1)C(C)(C)CCC2(C)C
UNIT TAG: %
inhibition at 10 µM: -20
--
COMPOUND: Cc1cc2c(cc1Cc1ccc(C(=O)Nn3c(N)nc(C(F)(F)F)cc3=O)o1)C(C)(C)CCC2(C)C
UNIT TAG: %
inhibition at 10 µM: -5
--
COMPOUND: Cc1cc2c(cc1Cc1ccc(C(=O)Nn3c(O)nnc3-c3ccccc3)o1)C(C)(C)CCC2(C)C
UNIT TAG: %
inhibition at 10 µM: -25
--
COMPOUND: Cc1cc2c(cc1Cc1ccc(C(=O)Nn3c(O)nnc3-c3ccncc3)o1)C(C)(C)CCC2(C)C
UNIT TAG: %
inhibition at 10 µM: -28
--
COMPOUND: Cc1ccc2nc(C)n(NC(=O)c3ccc(Cc4cc5c(cc4C)C(C)(C)CCC5(C)C)o3)c(=O)c2c1
UNIT TAG: %
inhibition at 10 µM: -4

====

# ASSAY SYSTEM: rat GnRH receptor (Rattus norvegicus)
# Sequence (P30969 whole entry): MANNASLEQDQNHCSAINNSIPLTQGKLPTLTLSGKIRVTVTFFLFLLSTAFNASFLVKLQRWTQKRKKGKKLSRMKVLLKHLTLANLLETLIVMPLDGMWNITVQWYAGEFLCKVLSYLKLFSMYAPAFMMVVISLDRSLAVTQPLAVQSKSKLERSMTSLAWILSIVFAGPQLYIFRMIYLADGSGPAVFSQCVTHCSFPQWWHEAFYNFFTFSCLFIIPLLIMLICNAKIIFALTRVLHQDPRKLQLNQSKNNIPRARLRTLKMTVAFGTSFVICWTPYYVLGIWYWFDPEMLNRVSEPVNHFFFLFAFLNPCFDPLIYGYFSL
# MEASUREMENT NOTES: Radioligand binding, 125I-GnRH-A, rat pituitary membranes
# Design: membranes were prepared from rat pituitary; from tissue; host or cells: rat pituitary
# RUN CONDITIONS: read-out: rGnRH IC50

MOLECULE: Cc1cc2c(cc1Cc1ccc(C(=O)NCC3CCN(c4nccc(NCC5CCCO5)n4)CC3)o1)C(C)(C)CCC2(C)C (stereo not drawn)
UNIT TAG: nM
IC50: 170
//
MOLECULE: Cc1cc2c(cc1Cc1ccc(C(=O)NCc3cccc(CNc4ncc(C)c(NCC5CCCO5)n4)c3)o1)C(C)(C)CCC2(C)C (stereo not drawn)
UNIT TAG: nM
IC50: 7.2
//
MOLECULE: COc1cc2c(cc1Cc1ccc(C(=O)Nc3c(OC)cc(OC)c(C#N)c3OC)o1)C(C)(C)CCC2(C)C
UNIT TAG: nM
IC50: 21
//
MOLECULE: COc1cc2c(cc1Cc1ccc(C(=O)NCc3cccc(CNc4ccnc(NC[C@H]5CCCO5)n4)c3)o1)C(C)(C)CCC2(C)C (stereo in doubt)
UNIT TAG: nM
IC50: 9.6
//
MOLECULE: Cc1cc2c(cc1Cc1ccc(C(=O)NCC3CCCN(C(=O)OC(C)(C)C)C3)o1)C(C)(C)CCC2(C)C (stereo not drawn)
UNIT TAG: nM
IC50: 6000
//
MOLECULE: Cc1cc2c(cc1Cc1ccc(C(=O)NCc3ccc(CNc4ncccn4)cc3)o1)C(C)(C)CCC2(C)C
UNIT TAG: nM
IC50: 400
//
MOLECULE: Cc1cc2c(cc1Cc1ccc(C(=O)NCCCN3CCOCC3)o1)C(C)(C)CCC2(C)C
UNIT TAG: nM
IC50: 1740
//
MOLECULE: COc1ccc(CNC(=O)c2ccc(Cc3cc4c(cc3C)C(C)(C)CCC4(C)C)o2)c(OC)c1
UNIT TAG: nM
IC50: 70
//
MOLECULE: Cc1cc2c(cc1Cc1ccc(C(=O)NCC3CCCC(CN)C3)o1)C(C)(C)CCC2(C)C (stereo not drawn)
UNIT TAG: nM
IC50: 910
//
MOLECULE: Cc1cc2c(cc1Cc1ccc(C(=O)NCC3CCN(C(=O)OC(C)(C)C)CC3)o1)C(C)(C)CCC2(C)C
UNIT TAG: nM
IC50: 3310
//
MOLECULE: CCC(C)(C)c1ccc(OC)c(Cc2ccc(C(=O)Nc3c(OC)cc(OC)cc3OC)o2)c1
UNIT TAG: nM
IC50: 5.7
//
MOLECULE: COC(=O)c1ccc(OC)c(NC(=O)c2ccc(Cc3cc4c(cc3C)C(C)(C)CCC4(C)C)o2)c1
UNIT TAG: nM
IC50: 84
//
MOLECULE: Cc1cc2c(cc1Cc1ccc(C(=O)Nc3cccc(B(O)O)c3)o1)C(C)(C)CCC2(C)C
UNIT TAG: nM
IC50: 1300
//
MOLECULE: COc1cc(OC)c(NC(=O)c2ccc(Cc3cc4c(cc3C)CCCC4(C)C)o2)c(OC)c1
UNIT TAG: nM
IC50: 2.5
//
MOLECULE: Cc1cc2c(cc1Cc1ccc(C(=O)NCc3cccc(CNc4nccc(N5CCOCC5)n4)c3)o1)C(C)(C)CCC2(C)C
UNIT TAG: nM
IC50: 8
